System: Staphylococcus aureus
Assay: Antibacterial activity against Staphylococcus aureus ATCC 29213 incubated for 18 hrs by two fold serial broth dilution method
Type: functional
Reported MIC values for a set of compounds
measurement.type: MIC

> print(dat)
                                 cpd.smiles       result
1  Cc1c2c(cc[n+]1C)c1ccccc1n2CCCCCCCCn1c2ccccc2c2cc[n+](C)c(C)c21.[I-].[I-]      4 µg/mL
2  CCCC[n+]1ccc2c3ccccc3n(CCN(CC)CC)c2c1C.[Br-]  > 128 µg/mL
3  [2H]C([2H])([2H])[n+]1ccc2c([nH]c3ccccc32)c1C.[I-]  > 128 µg/mL
4           CCN(CC)CCn1c2ccccc2c2ccnc(C)c21    128 µg/mL
5  Cc1c2c(cc[n+]1C)c1ccccc1n2CC[N+](C)(C)C.[I-].[I-]  > 128 µg/mL
6  CC[n+]1ccc2c3ccccc3n(CC[N+](C)(C)CC)c2c1C.[Br-].[Br-]  > 128 µg/mL
7  [2H]C([2H])([2H])[n+]1ccc2c3ccccc3n(CC[N+](CC)(CC)C([2H])([2H])[2H])c2c1C.[I-].[I-]  > 128 µg/mL
8  Cc1c2c(cc[n+]1C)c1ccccc1n2CCCCCCCn1c2ccccc2c2cc[n+](C)c(C)c21.[I-].[I-]      8 µg/mL
9          Cc1c2[nH]c3ccccc3c2cc[n+]1C.[I-]  > 128 µg/mL

---

Reported MIC values for a set of compounds
Test system: Staphylococcus aureus
Assay: Antibacterial activity against Staphylococcus aureus ATCC 29213 incubated for 18 hrs by two fold serial broth dilution method
Format: functional
measurement.type: MIC

> print(dat)
                                 cpd.smiles           study.target       result
1                   Cc1nccc2c1[nH]c1ccccc12  Staphylococcus aureus    128 µg/mL
2  CCCC[n+]1ccc2c3ccccc3n(CCN(C)C)c2c1C.[Br-]  Staphylococcus aureus  > 128 µg/mL
3  Cc1nccc2c3ccccc3n(CCCCCCn3c4ccccc4c4ccnc(C)c43)c12  Staphylococcus aureus  > 128 µg/mL
4  [2H]C([2H])([2H])[n+]1ccc2c3ccccc3n(CC[N+](C)(C)C([2H])([2H])[2H])c2c1C.[I-].[I-]  Staphylococcus aureus  > 128 µg/mL
5  CCC[n+]1ccc2c3ccccc3n(CCN(CC)CC)c2c1C.[Br-]  Staphylococcus aureus  > 128 µg/mL

---

Tested on: Escherichia coli
Assay: Antibacterial activity against Escherichia coli ATCC 8739 incubated for 18 hrs by two fold serial broth dilution method
Assay type: functional
measurement.type: MIC

cpd.smiles	result
Cc1nccc2c3ccccc3n(CCCCCn3c4ccccc4c4ccnc(C)c43)c12	> 128 µg/mL
Cc1nccc2c3ccccc3n(CCCCn3c4ccccc4c4ccnc(C)c43)c12	> 128 µg/mL
[2H]C([2H])([2H])[n+]1ccc2c3ccccc3n(CC[N+](C)(C)C([2H])([2H])[2H])c2c1C.[I-].[I-]	> 128 µg/mL
CCCCC[n+]1ccc2c3ccccc3n(CC[N+](C)(C)CCCCC)c2c1C.[Br-].[Br-]	> 128 µg/mL
Cc1nccc2c3ccccc3n(CCCCCCCCn3c4ccccc4c4ccnc(C)c43)c12	> 128 µg/mL
CCCC[n+]1ccc2c3ccccc3n(CCN(CC)CC)c2c1C.[Br-]	> 128 µg/mL
Cc1c2c(cc[n+]1C)c1ccccc1n2CCCCCCCn1c2ccccc2c2cc[n+](C)c(C)c21.[I-].[I-]	16 µg/mL
CCC[n+]1ccc2c3ccccc3n(CCN(CC)CC)c2c1C.[Br-]	> 128 µg/mL
CC[n+]1ccc2c3ccccc3n(CC[N+](CC)(CC)CC)c2c1C.[Br-].[Br-]	> 128 µg/mL
CC[N+](C)(CC)CCn1c2ccccc2c2cc[n+](C)c(C)c21.[I-].[I-]	> 128 µg/mL
CN[C@H](CC(C)C)C(=O)N[C@H]1C(=O)N[C@@H](CC(N)=O)C(=O)N[C@H]2C(=O)N[C@H]3C(=O)N[C@H](C(=O)N[C@H](C(=O)O)c4cc(O)cc(O)c4-c4cc3ccc4O)[C@H](O)c3ccc(c(Cl)c3)Oc3cc2cc(c3O[C@@H]2O[C@H](CO)[C@@H](O)[C@H](O)[C@H]2O[C@H]2C[C@](C)(N)[C@H](O)[C@H](C)O2)Oc2ccc(cc2Cl)[C@H]1O	> 128 µg/mL
CCCC[n+]1ccc2c3ccccc3n(CC[N+](C)(C)CCCC)c2c1C.[Br-].[Br-]	> 128 µg/mL
Cc1c2c(cc[n+]1C)c1ccccc1n2CC[N+](C)(C)C.[I-].[I-]	> 128 µg/mL
CCCCC[n+]1ccc2c3ccccc3n(CCN(CC)CC)c2c1C.[Br-]	128 µg/mL
CC[n+]1ccc2c3ccccc3n(CC[N+](C)(C)CC)c2c1C.[Br-].[Br-]	> 128 µg/mL
Cc1nccc2c3ccccc3n(CCCCCCCn3c4ccccc4c4ccnc(C)c43)c12	> 128 µg/mL
Cc1c2[nH]c3ccccc3c2cc[n+]1C.[I-]	> 128 µg/mL

All figures here come from ChEMBL document CHEMBL5608199.
